Tested on: CYP2C9
PROTOCOL: In vitro cocktail CYP450 activity assay in rat liver microsomes, CYP2C9 (tolbutamide probe)
CONDITION_INFO: at the Cmax level in rat plasma, calculated from the dose–response curve
Assign Response (% control) CYP2C9 to each entry below.
Put down the number, then write its unit next to it.

Give me measured Response (% control) CYP2C9, please, for this molecule: CC(C)=CCC[C@](C)(O[C@@H]1O[C@H](CO[C@@H]2O[C@H](CO)[C@@H](O)[C@H](O)[C@H]2O)[C@@H](O)[C@H](O)[C@H]1O)[C@H]1CC[C@]2(C)[C@@H]1[C@H](O)C[C@@H]1[C@@]3(C)CC[C@H](O[C@@H]4O[C@H](CO)[C@@H](O)[C@H](O)[C@H]4O[C@@H]4O[C@H](CO)[C@@H](O)[C@H](O)[C@H]4O)C(C)(C)[C@@H]3CC[C@]12C [GRb1, ginsenoside Rb1] 99.70 % control

Give me measured Response (% control) CYP2C9, please, for this molecule: CC(C)=CCC[C@](C)(O[C@@H]1O[C@H](CO)[C@@H](O)[C@H](O)[C@H]1O)[C@H]1CC[C@]2(C)[C@@H]1[C@H](O)C[C@@H]1[C@@]3(C)CC[C@H](O)C(C)(C)[C@@H]3[C@@H](O[C@@H]3O[C@H](CO)[C@@H](O)[C@H](O)[C@H]3O)C[C@]12C [GRg1, ginsenoside Rg1] 96.27 % control

Give me measured Response (% control) CYP2C9, please, for this molecule: CC(C)=CCC[C@](C)(O[C@@H]1O[C@H](CO)[C@@H](O)[C@H](O)[C@H]1O)[C@H]1CC[C@]2(C)[C@@H]1[C@H](O)C[C@@H]1[C@@]3(C)CC[C@H](O[C@@H]4O[C@H](CO)[C@@H](O)[C@H](O)[C@H]4O[C@@H]4O[C@H](CO)[C@@H](O)[C@H](O)[C@H]4O)C(C)(C)[C@@H]3CC[C@]12C [GRd, ginsenoside Rd] 99.97 % control

Give me measured Response (% control) CYP2C9, please, for this molecule: CC(C)=CCC[C@](C)(O[C@@H]1O[C@H](CO)[C@@H](O)[C@H](O)[C@H]1O)[C@H]1CC[C@]2(C)[C@@H]1[C@H](O)C[C@@H]1[C@@]3(C)CC[C@H](O)C(C)(C)[C@@H]3[C@@H](O[C@@H]3O[C@H](CO)[C@@H](O)[C@H](O)[C@H]3O[C@@H]3OC[C@@H](O)[C@H](O)[C@H]3O)C[C@]12C [NGR1, notoginsenoside R1] 99.99 % control

###

Assign concentration at 1 h to each entry below.
PROTOCOL: in vivo
Set-up: species or system Sprague-Dawley (SD) rats
CONDITION_INFO: Sprague-Dawley, plasma; 1 h after oral CNP, rat
Experimental: At each time, 0.5 mL of blood was collected in the heparin sodium tubes. Plasma was separated by centrifugation at 4000 rpm for 10 min and stored below −80 °C until bioanalysis. Oasis PRiME HLB SPE cartridges (1 cc/30 mg, Waters, Milford, MA, USA) were used to process the plasma samples (Supplementary Materials). […]
Quick reminder: number only, in ng/mL, skip the unit.

Give me measured concentration at 1 h, please, for this compound: CC(C)=CCC[C@](C)(O[C@@H]1O[C@H](CO)[C@@H](O)[C@H](O)[C@H]1O)[C@H]1CC[C@]2(C)[C@@H]1[C@H](O)C[C@@H]1[C@@]3(C)CC[C@H](O)C(C)(C)[C@@H]3[C@@H](O[C@@H]3O[C@H](CO)[C@@H](O)[C@H](O)[C@H]3O[C@@H]3OC[C@@H](O)[C@H](O)[C@H]3O)C[C@]12C [NGR1, notoginsenoside R1] 0.45

Give me measured concentration at 1 h, please, for this compound: CC(C)=CCC[C@](C)(O[C@@H]1O[C@H](CO)[C@@H](O)[C@H](O)[C@H]1O)[C@H]1CC[C@]2(C)[C@@H]1[C@H](O)C[C@@H]1[C@@]3(C)CC[C@H](O)C(C)(C)[C@@H]3[C@@H](O[C@@H]3O[C@H](CO)[C@@H](O)[C@H](O)[C@H]3O)C[C@]12C [GRg1, ginsenoside Rg1] 0.4

Give me measured concentration at 1 h, please, for this compound: CC(C)=CCC[C@](C)(O[C@@H]1O[C@H](CO[C@@H]2O[C@H](CO)[C@@H](O)[C@H](O)[C@H]2O)[C@@H](O)[C@H](O)[C@H]1O)[C@H]1CC[C@]2(C)[C@@H]1[C@H](O)C[C@@H]1[C@@]3(C)CC[C@H](O[C@@H]4O[C@H](CO)[C@@H](O)[C@H](O)[C@H]4O[C@@H]4O[C@H](CO)[C@@H](O)[C@H](O)[C@H]4O)C(C)(C)[C@@H]3CC[C@]12C [GRb1, ginsenoside Rb1] 45.5
